Reported pIC50 on UniProtKB Q9Y233 for assorted compounds, compiled from publications.
The value called pIC50 is obtained by taking minus log10 of the concentration in mol/L.

[
  {
    "Compound": "Cc1ncc(C)n2nc(CCc3nc(N4CCC5(CC5)C4)nn3C)nc12",
    "Metric": "pIC50",
    "Value observed": 7.86
  }
]

# pIC50 measured on UniProtKB Q9Y233 for item CN1CCCC(NC(=O)c2c(NC(=O)c3nc(C4CC4)cnc3Nc3cncnc3)cnn2C)C1 (centres unmarked) = 7.54

# pIC50 measured on UniProtKB Q9Y233 for item Cc1nc2ccc(/C=C/c3nc(-c4ccccc4)nn3C)nn2c1C = 8.89

# pIC50 measured on UniProtKB Q9Y233 for item O=C(c1cnc(N[C@H]2C[C@H](n3c(=O)n(C4CC4)c4nccnc43)C2)s1)N1CCOCC1 = 5.04

# pIC50 measured on UniProtKB Q9Y233 for item CCN(C)C(=O)c1c(NC(=O)c2nc(C3CC3)cnc2Nc2cncnc2)cnn1C = 7.47

====

Reported IC50 on human PDE10A2 (Homo sapiens (Human)) for assorted compounds, compiled from publications.
Field: numeric (nM). Do not append units.

// known answers, use as guide
[
  {
    "Compound": "Cc1cccc2nc(CCc3nc(-c4cccs4)cn3C)nn12",
    "Subject of test": "human PDE10A2 (Homo sapiens (Human))",
    "Units text": "nM",
    "Value observed": 9.2
  },
  {
    "Compound": "CC1(C)C(=O)N([C@H]2C[C@H](Nc3nc4c(F)cc(F)cc4s3)C2)c2nccnc21",
    "Subject of test": "human PDE10A2 (Homo sapiens (Human))",
    "Units text": "nM",
    "Value observed": 2.71
  },
  {
    "Compound": "CNC(=O)c1nn(C)cc1NC(=O)c1nc(C2CCOC2)cnc1Nc1cncnc1 (centres unmarked)",
    "Subject of test": "human PDE10A2 (Homo sapiens (Human))",
    "Units text": "nM",
    "Value observed": 16.3
  }
]

# IC50 measured on human PDE10A2 (Homo sapiens (Human)) for item CCOc1ccccc1-c1ccc(-c2nc3ccc(F)cc3c(C(=O)O)c2C)cc1 = 5.5

====

Reported IC50 on human PDE10A2 (Homo sapiens (Human)) for assorted molecules, compiled from publications.
Field: numeric (nM). Do not append units.

// known answers, use as guide
[
  {
    "Molecule": "CNC(=O)c1c(NC(=O)c2nc(C3CC3)cnc2Nc2cncnc2)cnn1CC1CCCO1 (centres unmarked)",
    "Value observed": 1.4
  },
  {
    "Molecule": "CC(=O)Oc1cccc(-c2cn3ccc(NC(=O)c4c(C(=O)N(C)C)cnn4C)nc3n2)c1",
    "Value observed": 8.3
  }
]

# IC50 measured on human PDE10A2 (Homo sapiens (Human)) for item O=C(Nc1ccc(F)c(F)c1C(=O)N1CCC1)c1nc(C2CC2)cnc1Nc1cncnc1 = 15.5

# IC50 measured on human PDE10A2 (Homo sapiens (Human)) for item Cc1ncc(C)n2nc(CCc3nc(N4CCCC4=O)nn3C)nc12 = 288

# IC50 measured on human PDE10A2 (Homo sapiens (Human)) for item O=C(Nc1cn(-c2ccccn2)cn1)c1nc(C2CC2)cnc1Nc1cncnc1 = 187

# IC50 measured on human PDE10A2 (Homo sapiens (Human)) for item COc1cccn2nc(CCc3nc(-c4ccsc4)cn3C)nc12 = 16
